measuredTarget: BRN2 (Homo sapiens, UniProt P20265)
Sequence (P20265 whole entry): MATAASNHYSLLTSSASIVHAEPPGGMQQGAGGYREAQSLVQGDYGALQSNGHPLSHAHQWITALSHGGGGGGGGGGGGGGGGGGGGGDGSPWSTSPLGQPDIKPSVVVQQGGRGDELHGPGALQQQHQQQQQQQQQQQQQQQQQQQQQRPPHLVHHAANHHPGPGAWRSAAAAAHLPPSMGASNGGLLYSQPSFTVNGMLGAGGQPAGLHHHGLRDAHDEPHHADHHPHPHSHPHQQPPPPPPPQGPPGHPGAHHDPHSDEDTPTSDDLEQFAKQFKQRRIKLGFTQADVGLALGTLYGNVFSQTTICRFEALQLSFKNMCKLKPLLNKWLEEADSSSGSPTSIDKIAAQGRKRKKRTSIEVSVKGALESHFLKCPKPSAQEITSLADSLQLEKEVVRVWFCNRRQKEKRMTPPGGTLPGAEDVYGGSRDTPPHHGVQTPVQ
procedureText: BLI binding
details: result in words
quantityName: BLI binding

- smilesRepr: "O=C1/C(=N\\Nc2nc3ccccc3s2)Cc2cc(Cl)ccc21"
  resultValue: "Positive binding"
- smilesRepr: "O=C1/C(=N\\Nc2nc3ccccc3s2)Nc2cc(F)ccc21"
  resultValue: "No binding"
- smilesRepr: "COC(=O)c1ccc2c(c1)C(=O)/C(=N\\Nc1nc3ccccc3s1)C2"
  resultValue: "No binding"
- smilesRepr: "CNC(=O)c1ccc2c(c1)C/C(=N/Nc1nc3ccccc3s1)C2=O"
  resultValue: "No binding"
- smilesRepr: "O=C1/C(=N\\Nc2nc3ccccc3s2)Cc2cc(F)ccc21"
  resultValue: "Positive binding"
- smilesRepr: "CN1C(=O)/C(=N/Nc2nc3ccccc3s2)c2ccccc21"
  resultValue: "No binding"
- smilesRepr: "CN1/C(=N/Nc2nc3ccccc3s2)C(=O)c2ccccc21"
  resultValue: "No binding"
- smilesRepr: "O=C1/C(=N\\Nc2nc3ccccc3s2)Cc2cc(C3CC3)ccc21"
  resultValue: "No binding"
- smilesRepr: "O=C1Nc2cc(F)ccc2/C1=N\\Nc1nc2ccccc2s1"
  resultValue: "No binding"
- smilesRepr: "O=C1/C(=N\\Nc2nc3ccccc3s2)Cc2cc(N3CCC3)ccc21"
  resultValue: "No binding"
- smilesRepr: "O=C1/C(=N\\Nc2nc3ccccc3s2)Cc2cccc(C(F)(F)F)c21"
  resultValue: "Positive binding"
- smilesRepr: "CC(C)Oc1ccc2c(c1)C/C(=N/Nc1nc3ccccc3s1)C2=O"
  resultValue: "Positive binding"
- smilesRepr: "CC(C)c1ccc2c(c1)C/C(=N/Nc1nc3ccccc3s1)C2=O"
  resultValue: "No binding"
